- TARGET_SYSTEM: SIRT1 (Homo sapiens, UniProt Q96EB6)
- Sequence (Q96EB6 whole entry): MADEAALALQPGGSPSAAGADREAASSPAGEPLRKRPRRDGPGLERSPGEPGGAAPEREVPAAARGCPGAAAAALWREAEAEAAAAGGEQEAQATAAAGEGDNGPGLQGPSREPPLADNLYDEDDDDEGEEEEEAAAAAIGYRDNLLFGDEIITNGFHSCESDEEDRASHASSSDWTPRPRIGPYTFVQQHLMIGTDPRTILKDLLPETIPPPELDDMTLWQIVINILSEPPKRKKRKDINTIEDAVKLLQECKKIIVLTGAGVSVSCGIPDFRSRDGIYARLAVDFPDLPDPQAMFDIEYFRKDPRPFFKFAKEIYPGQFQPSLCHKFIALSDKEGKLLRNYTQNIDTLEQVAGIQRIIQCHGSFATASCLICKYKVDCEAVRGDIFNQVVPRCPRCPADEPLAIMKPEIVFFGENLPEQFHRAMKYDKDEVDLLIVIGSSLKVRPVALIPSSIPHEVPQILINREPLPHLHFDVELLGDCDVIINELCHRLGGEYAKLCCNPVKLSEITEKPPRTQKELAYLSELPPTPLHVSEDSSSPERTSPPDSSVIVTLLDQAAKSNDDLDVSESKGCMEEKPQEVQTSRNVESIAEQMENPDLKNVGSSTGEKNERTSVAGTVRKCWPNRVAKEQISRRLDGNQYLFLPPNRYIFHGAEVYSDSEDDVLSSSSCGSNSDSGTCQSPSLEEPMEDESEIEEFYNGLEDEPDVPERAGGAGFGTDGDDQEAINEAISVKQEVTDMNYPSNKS
- TEST_NAME: Mass spectrometry based SIRT1 deacetylation (activation) assay
- Assay type: biochemical
- RUN_CONDITIONS: 25 min, 0.5 μM peptide substrate, 120 μM βNAD+, 10 nM SIRT1, 25 min at 25° C., read-out: % Fold Act. (percent maximum fold activation)
- Description: A mass spectrometry based assay was used to identify modulators of SIRT1 activity. The mass spectrometry based assay utilizes a peptide having 20 amino acid residues as follows: Ac-EE-K(biotin)-GQSTSSHSK(Ac)NleSTEG-K(5TMR)-EE-NH2 (SEQ ID NO: 1) wherein K(Ac) is an acetylated lysine residue and Nle is a norleucine. The peptide is labeled with the fluorophore 5TMR (excitation 540 nm/emission 580 nm) at the C-terminus. The sequence of the peptide substrate is based on p53 with several modifications. […]
Below, each entry is listed with its recorded Emax.

{"COMPOUND": "COCCN(CCOC)c1cc(C(=O)Nc2ccccc2C(C)=O)nc(-c2ccccc2)n1", "Emax": "≥ 300%"}
{"COMPOUND": "CN(C)CCNc1cc(C(=O)Nc2ccccc2-c2nnc(N3CCOCC3)s2)nc(-c2ccccc2)n1", "Emax": "≥ 300%"}
{"COMPOUND": "CCOC(=O)c1nnc(-c2ccccc2NC(=O)c2cc(N(C)CCN(C)C)nc(-c3ccccc3)n2)s1", "Emax": "< 150%"}
{"COMPOUND": "CCN(CCN(C)C)c1cc(C(=O)Nc2ccccc2-c2ncc(C(C)(C)C)s2)nc(-c2ccccc2)n1", "Emax": "150 to 300%"}
{"COMPOUND": "CCN(CCN(C)C)c1cc(C(=O)Nc2ccccc2-c2nnc(N3CCOCC3)s2)nc(-c2ccccc2)n1", "Emax": "≥ 300%"}

Lookup result for CCN(CCN(C)C)c1cc(C(=O)Nc2ccccc2-c2ncc(-c3ccccc3)o2)nc(-c2ccccc2)c1 ; measured Emax: ≥ 300%

Lookup result for CN(C)CCNc1cc(C(=O)Nc2ccccc2-n2cc(-c3ccccc3)cn2)nc(-c2ccccc2)n1 ; measured Emax: 150 to 300%

Lookup result for CN(C)CCN(C)c1cc(C(=O)Nc2ccccc2-c2nncs2)nc(-c2ccccc2)n1 ; measured Emax: ≥ 300%

Lookup result for O=C(Nc1ccccc1-c1nnc(N2CCOCC2)s1)c1cc(OC[C@@H](O)CO)nc(-c2ccccc2)n1 ; measured Emax: ≥ 300%

Lookup result for CN(C)CCNc1cc(C(=O)Nc2ccccc2-c2ncc(-c3ccccc3)s2)nc(-c2ccccc2)n1 ; measured Emax: 150 to 300%

Hello, the source for this data is patent US20110039847A1, in case you need it.
